# Tested Target: T1, human CX3CR1 (human, UniProt P49238 1-355)
# T1 construct: overexpressed on CHO, BA/F3 or HEK293T cells; also called huCX3CR1; hCX3CR1
# T1 sequence: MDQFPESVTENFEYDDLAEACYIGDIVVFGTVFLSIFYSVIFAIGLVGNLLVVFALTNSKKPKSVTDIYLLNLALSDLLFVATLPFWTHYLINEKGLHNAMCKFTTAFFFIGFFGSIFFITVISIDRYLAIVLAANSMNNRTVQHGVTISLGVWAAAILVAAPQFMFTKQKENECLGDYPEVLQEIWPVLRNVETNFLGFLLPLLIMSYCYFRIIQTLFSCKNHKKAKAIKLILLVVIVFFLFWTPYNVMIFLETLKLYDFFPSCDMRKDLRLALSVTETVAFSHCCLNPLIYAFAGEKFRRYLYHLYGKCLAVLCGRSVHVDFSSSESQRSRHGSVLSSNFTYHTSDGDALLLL
# Assay Details: A647-fractalkine competition FACS, HEK293T human CX3CR1
Readout Label: pIC50
Recall that pIC50 is obtained by taking minus log10 of the concentration measured in molar.

[Q] Could you share which pIC50 value was measured for CX3CR1BIIPMP61G4 (VHH, also called 61G04; not shown: C-terminal c-myc and His6 tags) VHH: KVQLVESGGGSVQAGGSLRLSCAASGSIFSSNAMAWYRQAPGKQRDLVAAINSVGITKYADSVKGRFTISRDNAKNTVYLQMMSLKPEDTAVYYCTSDPRRGWDTRYWGQGTQVTVSS ?
[A] 7.38

[Q] Could you share which pIC50 value was measured for CX3CR1BIIPMP66G01 (VHH, also called CX3CR1BII66G01; not shown: C-terminal c-myc and His6 tags) VHH: EMQLVESGGGSVQAGESLRLSCAASGSIFSSNAMAWYRQAPGKQRDLVALINSVGITKYADSVKGRFTISRDNAKNTVYLQMNSLKPEDTAVYYCTSDGRRGWDTRYWGQGTQVTVSS ?
[A] 7.85

[Q] Could you share which pIC50 value was measured for CX3CR1BIIPMP54G3 (VHH, also called 54G03; not shown: C-terminal c-myc and His6 tags) VHH: EVQLVESGGGSVQAGESLRLSCAASGSIFSSNAMAWYRQAPGKQRDLVALINSVGITKYADSVKGRFTISRDNAKNTVYLQMNSLKPEDTAVYYCTSDPRRGWDTRYWGQGTLVTVSS ?
[A] 6.57

[Q] Could you share which pIC50 value was measured for CX3CR1BIIPMP54B3 (VHH, also called 54B03; not shown: C-terminal c-myc and His6 tags) VHH: EVQLVESGGGSVQAGESLRLSCAASGSIFSSNAMAWYRQAPGKQRDLVAAINSVGITKYADSVKGRFTISRDNAKNTVYLQMNSLKPEDTAVYYCTSDPRRGWDTRYWGQGTQVTVSS ?
[A] 7.17

Further cases:
[Q] Could you share which pIC50 value was measured for CX3CR1BIIPMP54A4 (VHH, also called 54A04; not shown: C-terminal c-myc and His6 tags) VHH: EVQLVESGRGSVQAGESLRLSCAASGSIFSSNAMAWYRQAPGKQRDLVAGINSVGITKYADSVKGRFTISRDNAKNTVYLQMNSLKPEDTAVYYCTSDPRRGWDTRYWGQGTQVTVSS ?
[A] 7.31

[Q] Could you share which pIC50 value was measured for CX3CR1BIIPMP61F11 (VHH, not shown: C-terminal c-myc and His6 tags) VHH: KVQLVESGGGSVQAGESLRLSCAASGSIFSSNAMAWYRQPPGKQRDLVAAINSVGITKYADSVKGRFTIFRDNAKNTVYLQMNSLKPEDTAVYYCTSDPRRGWDTRYWGQGTQVTVSS ?
[A] 7.34

Where do these numbers come from? They come from patent US20130224224A1.
